Please respond with reported fold-selectivity (Cbl-b over C-cbl) for every item in the list.
measured.target: Cbl-b (Homo sapiens (Human), UniProt Q13191)
Sequence (Q13191 40-426): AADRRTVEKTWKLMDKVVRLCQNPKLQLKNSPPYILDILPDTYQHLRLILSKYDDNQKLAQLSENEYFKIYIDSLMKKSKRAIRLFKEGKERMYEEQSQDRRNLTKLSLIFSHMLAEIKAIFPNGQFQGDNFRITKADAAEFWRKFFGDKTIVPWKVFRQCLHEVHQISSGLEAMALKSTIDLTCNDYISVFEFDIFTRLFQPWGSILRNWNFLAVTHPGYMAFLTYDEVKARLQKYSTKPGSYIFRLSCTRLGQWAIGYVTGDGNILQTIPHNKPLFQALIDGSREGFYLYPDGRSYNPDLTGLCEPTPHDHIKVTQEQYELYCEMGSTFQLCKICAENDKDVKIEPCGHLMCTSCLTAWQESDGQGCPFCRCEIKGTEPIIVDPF
test.name: Cbl-b LCK Ub TR-FRET assay (Cbl-b Lck HTRF)
Format: biochemical
measurement.conditions: ratio C-cbl Lck HTRF IC50 / Cbl-b Lck HTRF IC50
Numbers only, in x.

Please review the following examples before continuing.
For the compound Cn1cnnc1C1(c2cccc(N3Cc4c(cccc4C(F)(F)F)C3=O)c2)CC2(COC2)C1 , give its measured fold-selectivity (Cbl-b over C-cbl) value.
1.7

For the compound Cn1cnnc1[C@H](CC1CCCC1)c1cccc(N2Cc3c(cc(CNC4(C)CCC4)cc3C(F)(F)F)C2=O)c1 , give its measured fold-selectivity (Cbl-b over C-cbl) value.
5.0

Now let's try a different one.
For the compound Cn1cnnc1[C@]1(c2cccc(N3Cc4c(cc(CNC5(C)CCC5)cc4C(F)(F)F)C3=O)c2)C[C@@H](CC#N)C1 , give its measured fold-selectivity (Cbl-b over C-cbl) value.
2.4

====

measured.target: Human Cbl-b (residues 40-426) (Homo sapiens (Human), UniProt Q13191)
Sequence (Q13191 40-426): as above
test.name: Cbl-b SPR assay
Type: binding
measurement.conditions: SPR, 20° C.
property.name: pKd
Give bare numbers, as −log10 of the molar value.

Print Human Cbl-b (residues 40-426) (Homo sapiens (Human), UniProt Q13191) pKd for CO[C@H]1C[C@](c2cc(N[C@H](C)CC#N)cc(N3Cc4c(cc(CNC5(C)CCC5)cc4C(F)(F)F)C3=O)c2)(c2nncn2C)C1 (single isomer, unassigned) .
8.89

Print Human Cbl-b (residues 40-426) (Homo sapiens (Human), UniProt Q13191) pKd for Cl.Cn1cnnc1[C@]1(c2cccc(N3Cc4c(cc(CNC5(C)CCC5)cc4C(F)(F)F)C3=O)c2)C[C@@H](Cl)C1 [Compound 137, hydrochloride] .
9.57

Print Human Cbl-b (residues 40-426) (Homo sapiens (Human), UniProt Q13191) pKd for CC[C@H](NC1(C)CCC1)c1cc2c(c(C(F)(F)F)c1)CN(c1cccc([C@H](c3nncn3C)C3COC3)c1)C2=O .
9.70

Print Human Cbl-b (residues 40-426) (Homo sapiens (Human), UniProt Q13191) pKd for Cc1cc([C@@H](c2nncn2C)C2COC2)cc(N2Cc3c(cc(CNC4(C)CCC4)cc3C(F)(F)F)C2=O)c1 (single isomer, unassigned) .
7.59

Print Human Cbl-b (residues 40-426) (Homo sapiens (Human), UniProt Q13191) pKd for Cn1cnnc1[C@]1(c2cccc(N3Cc4c(cc(CNC5(C)CCC5)cc4C(F)(F)F)C3=O)c2)C[C@@H](O)C1 .
7.10

Print Human Cbl-b (residues 40-426) (Homo sapiens (Human), UniProt Q13191) pKd for Cn1cnnc1C(c1cccc(N2Cc3c(cc(CNC4(C)CCC4)cc3C(F)(F)F)C2=O)c1)C1(F)CSC1 (centres unmarked) .
8.70

Print Human Cbl-b (residues 40-426) (Homo sapiens (Human), UniProt Q13191) pKd for Cn1cnnc1[C@@H](c1cccc(N2Cc3c(Cl)cc(CNC4(C)CCC4)cc3C2=O)c1)C1COC1 .
8.59

Now let's try a different one.
Print Human Cbl-b (residues 40-426) (Homo sapiens (Human), UniProt Q13191) pKd for Cn1cnnc1C1(c2cccc(N3Cc4c(cc(C(CF)NC5(C)CCC5)cc4C(F)(F)F)C3=O)c2)CCC1 (centres unmarked) .
8.77

====

measured.target: Human Cbl-b (residues 40-426) (Homo sapiens (Human), UniProt Q13191)
test.name: Cbl-b SPR assay
Type: binding
measurement.conditions: C-cbl SPR Kd vs Cbl-b SPR Kd
Please respond with reported Fold of selectivity for every item in the list.

For the compound CO[C@H]1C[C@](c2cccc(N3Cc4ccc(CNC5(C)CCC5)cc4C3=O)c2)(c2nncn2C)C1 , give its measured Fold of selectivity value.
8.0×

For the compound CO[C@H]1C[C@](c2cccc(N3Cc4c(cc(CNCC5(F)CC5)cc4C(F)(F)F)C3=O)c2)(c2nncn2C)C1 , give its measured Fold of selectivity value.
11×

For the compound CC(C)[C@H]1CN(C)CCN1Cc1cc2c(c(C(F)(F)F)c1)CN(c1cc([C@]3(c4nncn4C)C[C@@H](C)C3)cc(OC3CCCC3)n1)C2=O , give its measured Fold of selectivity value.
4.5×

Now let's try a different one.
For the compound CC(=O)[C@H]1C[C@@](c2cccc(N3Cc4c(cc(CNC5(C)CCC5)cc4C(F)(F)F)C3=O)c2)(c2nncn2C)C1 , give its measured Fold of selectivity value.
5.4×

====

Please respond with reported pIC50 for every item in the list.
measured.target: UniProt:Q13191
test.name: Cbl-b LCK Ub TR-FRET assay (Cbl-b Lck HTRF)
Type: biochemical
measurement.conditions: Cbl-b LCK Ub TR-FRET
Answers are plain numbers, as −log10 of the molar value.

Please review the following examples before continuing.
For the molecule COC1CC([C@@H](c2cccc(N3Cc4c(cc(CNC5(C)CCC5)cc4C(F)(F)F)C3=O)c2)c2nncn2C)C1 (single isomer, unassigned) [Compound 134] , give its measured pIC50 value.
8.01

For the molecule CCNc1cc(N2Cc3c(cc(CNC4(C)CCC4)cc3C(F)(F)F)C2=O)cc([C@]2(c3nncn3C)C[C@@H](OC)C2)c1 [Compound 227] , give its measured pIC50 value.
8.00

Now let's try a different one.
For the molecule Cn1cnnc1C1(c2cccc(N3Cc4c(cc(CNC5(C)CCC5)cc4C(F)(F)F)C3=O)c2)CCCC1 [Compound 292] , give its measured pIC50 value.
8.01
